- testProtocol: Intrinsic clearance in human liver microsome
- Assay type: ADME
- conditionDescription: liver microsomes
Quick reference for microsomal CLint among some compounds
Answer in µL/min/mg, number only, no unit symbol.

Answered examples (3):
Cn1c(=O)c2c(-c3oc(S(C)(=O)=O)cc3Cl)n(Cc3ccnc4ccc(Cl)cc34)nc2n(CC2CC2)c1=O	19
Cn1cc(S(C)(=O)=O)nc1-c1c2c(=O)n(C)c(=O)n(CC3CC3)c2nn1Cc1ccnc2ccc(Cl)cc12	23
Cc1oc(S(C)(=O)=O)cc1-c1c2c(=O)n(C)c(=O)n(CC3CC3)c2nn1Cc1ccnc2ccc(Cl)cc12	22

microsomal CLint measured on Cn1cc(S(N)(=O)=O)cc1-c1c2c(=O)n(C)c(=O)n(CC3CC3)c2nn1Cc1ccnc2ccc(Cl)cc12 = 22

microsomal CLint measured on Cn1cc(S(N)(=O)=O)nc1-c1c2c(=O)n(C)c(=O)n(CC3CC3)c2nn1Cc1c[nH]c2ccc(Cl)cc12 = 56

microsomal CLint measured on Cn1cc(S(C)(=O)=O)nc1-c1c2c(=O)n(C)c(=O)n(CC3CC3)c2nn1Cc1c[nH]c2ccc(Cl)cc12 = 49

* * *

Quick reference for microsomal CLint among some molecules
- testProtocol: Intrinsic clearance in human liver microsome
- Assay type: ADME
- conditionDescription: liver microsomes

Answered examples (5):
CNS(=O)(=O)c1cc(-c2c3c(=O)n(C)c(=O)n(CC4CC4)c3nn2Cc2c[nH]c3ccc(Cl)cc23)n(C)c1	> 100 µL/min/mg
Cn1cc([S+](C)[O-])cc1-c1c2c(=O)n(C)c(=O)n(CC3CC3)c2nn1Cc1ccnc2ccc(Cl)cc12 (stereo unspecified)	> 100 µL/min/mg
Cc1oc(S(C)(=O)=O)cc1-c1c2c(=O)n(C)c(=O)n(CC3CC3)c2nn1Cc1cn(C)c2ccc(Cl)cc12	> 100 µL/min/mg
Cn1cc(C#N)cc1-c1c2c(=O)n(C)c(=O)n(CC3CC3)c2nn1Cc1ccnc2ccc(Cl)cc12	< 14 µL/min/mg
Cn1cc([S+](C)[O-])cc1-c1c2c(=O)n(C)c(=O)n(CC3CC3)c2nn1Cc1c[nH]c2ccc(Cl)cc12 (stereo unspecified)	> 100 µL/min/mg

microsomal CLint measured on CNS(=O)(=O)c1cc(-c2c3c(=O)n(C)c(=O)n(CC4CC4)c3nn2Cc2ccnc3ccc(Cl)cc23)n(C)c1 = > 100 µL/min/mg
